System: SK-MEL-5
Experiment: NCI tumour cell line growth inhibition, 48 h
The source made the active and inactive calls. Rule as the data show it: active = GI50 up to about 1.1 µM and inactive = higher.
Use one of these outcomes when replying: YES for active, NO for inactive

Exercise: Outcome logged for O=C(O)C1CCCCC1c1c2ccc(=O)c(O)c-2oc2c(O)c(O)ccc12 (stereo not given) in this assay:
Key: NO

Exercise: Outcome logged for `O=c1c(S(=O)(=O)Oc2ccccc2)coc2cc(F)ccc12` in this assay:
Key: NO

Exercise: Outcome logged for CC1CC[C@@]2(OC1)OC1C[C@H]3[C@@H]4CC=C5C[C@@H](OC6OC(CO)C(OC7OC(CO)C(O)C(O)C7O)C(O)C6OC6OC(C)C(O)C(O)C6O)CC[C@]5(C)[C@H]4CC[C@]3(C)C1[C@@H]2C (stereo not given in full) in this assay:
Key: YES

Exercise: Outcome logged for Cc1cccc(C)c1NC(=O)/C(CC(=O)CC(c1ccccc1)c1c(O)c2ccccc2oc1=O)=N/O (stereo not given) in this assay:
Key: NO

Exercise: Outcome logged for O=c1[nH]c(=O)n(C2CC(O)C(CO)O2)cc1C#Cc1ccc(F)cc1 (stereo not given) in this assay:
Key: NO
